- System: vasopressin-induced ST depression
- assay.comment: Preventive effect on vasopressin-induced ST depression (experimental model of angina pectoris)
- Type: in vivo, Male Donryu strain rats
- Design: key: +: Significantly different from vehicle control (P < 0.05); -: No significant difference
- experimental.setup: 30 mg/kg p.o.; 7 hours following administration
Structures can show the parent of a compound that is named as a salt.
attribute.measured: Preventive effect on ST depression, 7 hours

- compound: "COc1ccc([C@@H]2Sc3ccccc3N(CCN(C)C)C(=O)[C@@H]2OC(C)=O)cc1 [Diltiazem hydrochloride, reference compound]"
  recorded.result: "-"
- compound: "Cc1ccc2c(c1)C(NC(=O)CCCN1CCN(c3ccc(F)cc3)CC1)c1ccccc1CS2 (stereo not shown)"
  recorded.result: "+"
- compound: "O=C(CCCN1CCN(c2ccc(F)cc2)CC1)NC1c2ccccc2C=Cc2ccccc21"
  recorded.result: "+"
- compound: "O=C(CCCN1CCN(c2ccc(F)cc2)CC1)NC1c2ccccc2CSc2ccccc21 (stereo not shown)"
  recorded.result: "+"
